Data origin, for the record: patent US12679843B2

system.tested: Factor D (Homo sapiens, UniProt P00746)
Sequence (P00746 26-253): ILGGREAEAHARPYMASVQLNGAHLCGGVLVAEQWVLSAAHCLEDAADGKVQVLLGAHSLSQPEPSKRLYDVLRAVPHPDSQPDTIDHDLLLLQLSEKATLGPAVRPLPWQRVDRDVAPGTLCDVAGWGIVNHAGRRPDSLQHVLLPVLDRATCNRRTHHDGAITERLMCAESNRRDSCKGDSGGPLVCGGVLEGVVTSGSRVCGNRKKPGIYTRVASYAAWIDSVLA
measurement.notes: Factor D esterolytic assay (Z-Lys-SBzl thioester substrate, DTNB, 405 nm)
Assay type: biochemical
recorded.conditions: substrate Z-Lys-SBzl 1.29 mM, 100 mM HEPES, 500 mM NaCl, pH 7.5, 10% DMSO, tested a minimum of three times
pIC50: −log10 of the molar value.
Listing of recorded pIC50 by entry.

See these solved cases before continuing.
Nc1ncnc2c1ncn2CC(=O)N1CC2(CC2)C[C@H]1C(=O)NCc1cccc(Cl)c1F [Compound 120c]	< 6.00
Nc1ncnc2c1cnn2CC(=O)N1[C@@H]2C[C@@H]2C[C@H]1C(=O)Nc1cccc(Br)n1 [Compound 79a]	6.00 to 7.00
Cc1cc(C(F)(F)F)cc2c3c(N)ncnc3n(CC(=O)N3C[C@H](F)C[C@H]3C(=O)Nc3cncc(Cl)n3)c12 [Compound 325c]	> 7.00

Using the record for Cc1nc(C(F)(F)F)cc2c3c(N)ncnc3n(CC(=O)N3[C@H](C(=O)Nc4cccc(Br)n4)C[C@@]4(C)C[C@@H]34)c12 [Compound 347a] , report its pIC50.
> 7.00

* * *

The next entries give measured pIC50 for Factor D (Homo sapiens, UniProt P00746).
pIC50: −log10 of the molar value.

See these solved cases before continuing.
COC(=O)c1cnc2c(ccn2CC(=O)N2[C@@H]3C[C@@H]3C[C@H]2C(=O)Nc2cccc(Br)n2)c1 [Compound 127d]	< 6.00
Cc1cc(-c2ccoc2)cc2c3c(N)ncnc3n(CC(=O)N3[C@@H]4C[C@@H]4C[C@H]3C(=O)Nc3cccc(Br)n3)c12 [Compound 352c]	> 7.00
Nc1cccc2c1ccn2CC(=O)N1[C@@H]2C[C@@H]2C[C@H]1C(=O)Nc1cccc(Br)n1 [Compound 85b]	< 6.00
Nc1ncnc2c1c1nc(-c3cccnc3)ccc1n2CC(=O)N1[C@@H]2C[C@@H]2C[C@H]1C(=O)Nc1cccc(Br)n1 [Compound 371c]	6.00 to 7.00
Nc1ncnc2c1c(-c1ccc3[nH]ccc3c1)cn2CC(=O)N1C[C@H](F)C[C@H]1C(=O)NCc1cccc(Cl)c1F [Compound 139b]	> 7.00

API: value(readout= pIC50, system= Factor D (Homo sapiens, UniProt P00746), query= Cc1cc(C(F)(F)F)cc2c3c(N)ncnc3n(CC(=O)N3C[C@H](F)C[C@H]3C(=O)Nc3cccc(Cl)n3)c12 [Compound 300a] )
> 7.00

API: value(readout= pIC50, system= Factor D (Homo sapiens, UniProt P00746), query= CCOC(=O)CCc1ccc2c(c1)c1c(N)ncnc1n2CC(=O)N1[C@@H]2C[C@@H]2C[C@H]1C(=O)Nc1cccc(Br)n1 [Compound 45d] )
> 7.00

* * *

The next entries give measured IC50 for Factor D (Homo sapiens, UniProt P00746).

See these solved cases before continuing.
Nc1ncnc2c1c(-c1cccnc1)cn2CC(=O)N1C[C@H](F)C[C@H]1C(=O)NCc1cccc(Cl)c1F [Compound 114f]	< 0.1 µM
Cc1cc(F)c2c(c1)c1c(N)ncnc1n2CC(=O)N1[C@@H]2C[C@@H]2C[C@H]1C(=O)Nc1cccc(Br)n1 [Compound 391g]	< 0.1 µM
Nc1ncnc2c1c1cc(C(F)(F)F)ccc1n2CC(=O)N1[C@@H]2C[C@@H]2C[C@H]1C(=O)Nc1ccnc(Br)c1 [Compound 259d]	0.1 to 1 µM
Cc1cc(-c2ccoc2)cc2c3c(N)ncnc3n(CC(=O)N3[C@H](C(=O)Nc4cccc(Br)n4)C[C@@]4(C)C[C@@H]34)c12 [Compound 353a]	< 0.1 µM
Nc1ncnc2c1c1cccc(F)c1n2CC(=O)N1[C@@H]2C[C@@H]2C[C@H]1C(=O)Nc1cccc(Br)n1 [Compound 51g]	< 0.1 µM
Nc1ncnc2c1ncn2CC(=O)N1[C@@H]2C[C@@H]2C[C@H]1C(=O)NC1CCCC(Cl)(Cl)C1 (stereo partly shown) [Compound 102b]	0.1 to 1 µM

Using the record for Nc1ncnc2c1c1nc(Br)ccc1n2CC(=O)N1[C@@H]2C[C@@H]2C[C@H]1C(=O)Nc1cccc(Br)n1 [Compound 290g] , report its IC50.
< 0.1 µM

* * *

The next entries give measured IC50 for Factor D (Homo sapiens, UniProt P00746).

See these solved cases before continuing.
Nc1ncnc2c1c1ccncc1n2CC(=O)N1[C@@H]2C[C@@H]2C[C@H]1C(=O)Nc1cccc(Br)n1 [Compound 29f]	< 100 nM
COC(=O)c1cc(OC)c2c(c1)c1c(N)ncnc1n2CC(=O)N1[C@@H]2C[C@@H]2C[C@H]1C(=O)Nc1cccc(Br)n1 [Compound 240g]	< 100 nM
Cc1ncc(-c2cc(C)c3c(c2)c2c(N)ncnc2n3CC(=O)N2[C@@H]3C[C@@H]3C[C@H]2C(=O)Nc2nc(Br)ccc2C)cn1 [Compound 310a]	< 100 nM

API: value(readout= IC50, system= Factor D (Homo sapiens, UniProt P00746), query= Cc1cc2c(cc1Br)c1c(N)ncnc1n2CC(=O)N1[C@H](C(=O)Nc2cccc(Br)n2)C[C@@]2(C)C[C@@H]12 [Compound 380a] )
< 100 nM

API: value(readout= IC50, system= Factor D (Homo sapiens, UniProt P00746), query= Cc1ncc(-c2cc(C)c3c(c2)c2c(N)ncnc2n3CC(=O)N2[C@H](C(=O)Nc3nc(Br)ccc3C)C[C@@]3(C)C[C@@H]23)cn1 [Compound 311a] )
< 100 nM

API: value(readout= IC50, system= Factor D (Homo sapiens, UniProt P00746), query= CC(C)(C)CCNC(=O)[C@@H]1C[C@H]2C[C@H]2N1C(=O)Cn1cnc2c(N)ncnc21 [Compound 95c] )
> 1000 nM

API: value(readout= IC50, system= Factor D (Homo sapiens, UniProt P00746), query= Cc1cc(C)c2c(c1)c1c(N)ncnc1n2CC(=O)N1[C@H](C(=O)Nc2cccc(Br)n2)C[C@@]2(C)C[C@@H]12 [Compound 191a] )
< 100 nM

API: value(readout= IC50, system= Factor D (Homo sapiens, UniProt P00746), query= COC(=O)c1cn(CC(=O)N2C[C@H](F)C[C@H]2C(=O)NCc2cccc(Cl)c2F)c2ncnc(N)c12 [Compound 146a] )
> 1000 nM

API: value(readout= IC50, system= Factor D (Homo sapiens, UniProt P00746), query= CC(=O)Nc1ccc2c(c1)c1c(N)ncnc1n2CC(=O)N1[C@@H]2C[C@@H]2C[C@H]1C(=O)Nc1cccc(Br)n1 [Compound 168g] )
< 100 nM

API: value(readout= IC50, system= Factor D (Homo sapiens, UniProt P00746), query= C[C@@]12C[C@@H](C(=O)Nc3cccc(Br)n3)N(C(=O)Cn3c4ccc(C5CCCC5)cc4c4c(N)ncnc43)[C@@H]1C2 [Compound 338e] )
< 100 nM

API: value(readout= IC50, system= Factor D (Homo sapiens, UniProt P00746), query= COC(=O)c1ccc2c3c(N)ncnc3n(CC(=O)N3[C@@H]4C[C@@H]4C[C@H]3C(=O)Nc3cccc(Br)n3)c2c1 [Compound 41f] )
< 100 nM

API: value(readout= IC50, system= Factor D (Homo sapiens, UniProt P00746), query= COc1ccc2c(c1)c1c(N)ncnc1n2CC(=O)N1[C@H](C(=O)Nc2nc(Br)ccc2C)C[C@@]2(C)C[C@@H]12 [Compound 252a] )
< 100 nM

API: value(readout= IC50, system= Factor D (Homo sapiens, UniProt P00746), query= COc1cc(OC)c2c(c1)c1c(N)ncnc1n2CC(=O)N1[C@H](C(=O)Nc2cccc(Br)n2)C[C@@]2(C)C[C@@H]12 [Compound 279a] )
< 100 nM

* * *

The next entries give measured pIC50 for Factor D (Homo sapiens, UniProt P00746).
pIC50: −log10 of the molar value.

Cc1cc(C(F)(F)F)cc2c3c(N)ncnc3n(CC(=O)N3[C@@H]4C[C@@H]4C[C@H]3C(=O)Nc3nc(Cl)ccc3F)c12 [Compound 319c]	> 7.00
Cc1cc(C2CC2)cc2c3c(N)ncnc3n(CC(=O)N3[C@H](C(=O)Nc4cccc(Br)n4)C[C@@]4(C)C[C@@H]34)c12 [Compound 361a]	> 7.00

The record that follows has no pIC50 shown yet.
Using the record for Nc1ncnc2c1c1cc(C(F)(F)F)ccc1n2CC(=O)N1C[C@H](F)C[C@H]1C(=O)Nc1cccc(Cl)n1 [Compound 246b] , report its pIC50.
> 7.00

* * *

pIC50: −log10 of the molar value.
The next entries give measured pIC50 for Factor D (Homo sapiens).

See these solved cases before continuing.
NCc1cccc(-c2cn(CC(=O)N3C[C@H](F)C[C@H]3C(=O)NCc3cccc(Cl)c3F)c3ncnc(N)c23)c1 [Compound 115e]	6.00 to 7.00
C[C@H](NC(=O)[C@@H]1C[C@H]2C[C@H]2N1C(=O)Cn1ccc2c(N)ncnc21)c1cccc(Cl)c1F [Compound 86b]	6.00 to 7.00

API: value(readout= pIC50, system= Factor D (Homo sapiens), query= Cc1cc(-c2ccco2)cc2c3c(N)ncnc3n(CC(=O)N3[C@@H]4C[C@@H]4C[C@H]3C(=O)Nc3cccc(Br)n3)c12 [Compound 370a] )
> 7.00

API: value(readout= pIC50, system= Factor D (Homo sapiens), query= COc1cc(C)c2c(c1)c1c(N)ncnc1n2CC(=O)N1[C@@H]2C[C@@H]2C[C@H]1C(=O)Nc1cccc(Br)n1 [Compound 257g] )
> 7.00

API: value(readout= pIC50, system= Factor D (Homo sapiens), query= COc1cccc(-c2cc(C)c3c(c2)c2c(N)ncnc2n3CC(=O)N2[C@H](C(=O)Nc3cccc(Br)n3)C[C@@]3(C)C[C@@H]23)c1 [Compound 342a] )
> 7.00

API: value(readout= pIC50, system= Factor D (Homo sapiens), query= Nc1ncnc2c1c(Br)cn2CC(=O)N1C[C@H](F)C[C@H]1C(=O)NCc1cccc(Cl)c1F [Compound 116b] )
6.00 to 7.00
